Cited source for all entries: PubChem BioAssay (NCI)

GI50 by entry:
# Test system: MOLT-4 leukemia
# measurement.notes: NCI tumour cell line growth inhibition, 48 h
measurement.label: GI50

CCCSc1nc(Nc2ccc(S(N)(=O)=O)cc2)c(C#N)c(-c2ccc(Cl)cc2)n1 :: 8110 nM
CN(C)c1nc(NCCNS(=O)(=O)c2ccc(C(=O)/C=C/c3ccc(F)cc3)cc2)nc(Nc2ccc(F)cc2)n1 :: 2500 nM
CCN(CC)c1ccnc(CNCCSC(c2ccccc2)(c2ccccc2)c2ccc(C)cc2)c1 :: 2850 nM
COc1cc(NC(=O)c2cccc(C3CCc4c(cc(OC)c(OC)c4OC)O3)c2)cc(OC)c1OC (centres undefined) :: 2860 nM

----------
# System: T-47D breast
# measurement.notes: NCI tumour cell line growth inhibition, 48 h
TGI by entry:
measurement.label: TGI (µM)

CN(C)c1nc(NCCNS(=O)(=O)c2ccc(C(=O)/C=C/c3ccc(F)cc3)cc2)nc(Nc2ccc(F)cc2)n1 :: 11.7
CCN(CC)c1ccnc(CNCCSC(c2ccccc2)(c2ccccc2)c2ccc(C)cc2)c1 :: 9.04
CN(C)CCCNC(=S)Nc1ccc(/C=C/c2ccc(Cl)cc2)cc1 :: 4.1

----------
# Tested on: MDA-MB-468 breast
# measurement.notes: NCI tumour cell line growth inhibition, 48 h; in the data active = GI50 below about 0.43 µM; inactive = the rest
Possible outcomes: t (active), f (inactive)

O=C(Nc1ccc(Oc2ccc3nc(NC(=O)c4ccccc4)[nH]c3c2)cc1)Nc1cc(C(F)(F)F)ccc1F :: f
CC[C@H](Nc1nc(N)nc(C)c1C#N)c1nc2cccc(NCc3ccc(C(=O)NO)cc3)c2c(=O)n1-c1ccccc1 :: f
C[C@@H]1CC[C@@H]2[C@@H]1[C@H](OC(=O)/C=C/c1ccccc1)[C@]1(C3CCCCC3)C[C@@H](NC(=O)CO)[C@@]2(C)O1 :: f
CCCC[N+](CCCC)=c1ccc2nc3c(C)cc(N(CC)CC)cc3sc-2c1 :: t
CN(C)c1ncnc2c1nnn2C1OC(CO)C(O)C1O (stereo not given) :: t
COc1cnc2c(c1)C(=O)c1c-2n(CCCN2CCC(O)CC2)c(=O)c2cc(F)ccc12 :: t
CN(C)c1nc(NCCNS(=O)(=O)c2ccc(C(=O)/C=C/c3ccc(F)cc3)cc2)nc(Nc2ccc(F)cc2)n1 :: f
N#Cc1ccc(N2Cc3ccccc3OC3=C2C(=O)c2c(O)ccc(O)c2C3=O)cc1 :: t
CN(C)c1ccc(/C=C(\C#N)c2nc3ccccc3n2C)cc1 :: f
COc1ccc(-c2nn(-c3cccc(NC(=O)c4ccc5c(c4)OCCO5)c3)cc2-c2ccncc2)cc1Cl :: f

----------
# Tested on: MDA-MB-468 breast
# measurement.notes: NCI tumour cell line growth inhibition, 48 h
measurement.label: TGI (µM)

CN(C)c1nc(NCCNS(=O)(=O)c2ccc(C(=O)/C=C/c3ccc(F)cc3)cc2)nc(Nc2ccc(F)cc2)n1 :: 8.09
COc1cnc2c(c1)C(=O)c1c-2n(CCCN2CCC(O)CC2)c(=O)c2cc(F)ccc12 :: 0.438
O=C1c2ccccc2C(=Cc2ccccc2)c2ccccc21 :: 10.7
CC(=O)OCC(=O)O[C@@H]1C[C@]2(C(C)C)O[C@@]1(C)[C@@H]1CC[C@@H](C)[C@H]1[C@@H]2OC(=O)/C=C/c1ccccc1 :: 55.6
CC1=C2C(=C[C@@](C)(C=O)[C@@H]2O)C(=O)[C@](C)(O)C12CC2 :: 0.764
CC1CCN(CCCCCOc2ccc3oc4cc(Cl)ccc4c(=O)c3c2)CC1 :: 13.6

----------
TGI by entry:
# Tested on: MDA-MB-468 breast
# measurement.notes: NCI tumour cell line growth inhibition, 48 h
measurement.label: TGI

O=c1c2ccccc2n2n1CC(O)C2 (stereo not drawn) :: > 100 µM
CC(C)(C#N)c1cc(F)cc(C(=O)Nc2cc(Nc3ncccc3-c3ncnc4nc[nH]c34)ccc2F)c1 :: > 10 µM
CN(C)c1ccc(/C=C(\C#N)c2nc3ccccc3n2C)cc1 :: > 100 µM
